Values from ChEMBL document CHEMBL3425438

Recorded hepatocyte CLint by entry
Assay: Intrinsic clearance in rat hepatocytes measured per 10^6 cells
Format: ADME, cell-based, Hepatocyte
Details: read-out: CLH
Numbers only here, please. The scale is µL/min/1e6 cells.

// solved cases for hepatocyte CLint follow
[[record]]
smiles_entry = "Cc1cc(F)ccc1-c1c(Oc2ccc(/C=C/C(=O)O)cc2)c2ccc(O)cc2oc1=O"
assay_metric = "hepatocyte CLint"
observed_measurement = 50

[[record]]
smiles_entry = "Cc1cc(F)ccc1-c1c(Cc2ccc(/C=C/C(=O)O)cc2)c2ccc(N)cc2oc1=O"
assay_metric = "hepatocyte CLint"
observed_measurement = 18

[[record]]
smiles_entry = "Cc1cc(F)ccc1-c1c(Cc2ccc(/C=C/C(=O)O)cc2)c2ccc(C(F)F)cc2oc1=O"
assay_metric = "hepatocyte CLint"
observed_measurement = 16

[[record]]
smiles_entry = "Cc1c(O)ccc2c(Cc3ccc(/C=C/C(=O)O)cc3)c(-c3ccc(OC(F)(F)F)cc3)c(=O)oc12"
assay_metric = "hepatocyte CLint"
observed_measurement = 39

[[record]]
smiles_entry = "Cc1cc2c(Cc3ccc(/C=C/C(=O)O)cc3)c(-c3ccc(OC(F)(F)F)cc3)c(=O)oc2cc1O"
assay_metric = "hepatocyte CLint"
observed_measurement = 37


Identify measured hepatocyte CLint associated with O=C(O)/C=C/c1ccc(Cc2c(-c3ccc(OC(F)(F)F)cc3)c(=O)oc3cc(O)ccc23)cc1
40

Please indicate hepatocyte CLint recorded for Cc1cc(F)ccc1-c1c(Oc2ccc(/C=C/C(=O)O)cc2)c2ccccc2oc1=O
27

For the molecule O=C(O)/C=C/c1ccc(Cc2c(-c3ccc(OC(F)(F)F)cc3)c(=O)oc3ccccc23)cc1 , give its measured hepatocyte CLint value.
20

Query hepatocyte CLint for Cc1cc(F)ccc1-c1c(Oc2ccc(/C=C/C(=O)O)cc2)c2ccc(O)c(F)c2oc1=O
33

====

# hepatocyte CLint listing for each entry below
Experiment: Intrinsic clearance in human hepatocytes measured per 10^6 cells
Assay type: ADME, cell-based, Hepatocyte
Conditions: read-out: CLH

The examples below pair each entry with its known result.
[[record]]
smiles_entry = "Cc1cc(OC(F)(F)F)ccc1-c1c(Oc2ccc(/C=C/C(=O)O)cc2)c2ccccc2oc1=O"
assay_metric = "hepatocyte CLint"
observed_measurement = "7 µL/min/1e6 cells"

[[record]]
smiles_entry = "CCOc1ccc2c(Oc3ccc(/C=C/C(=O)O)cc3)c(-c3ccc(OC(F)(F)F)cc3C)c(=O)oc2c1"
assay_metric = "hepatocyte CLint"
observed_measurement = "20 µL/min/1e6 cells"

[[record]]
smiles_entry = "Cc1cc(F)ccc1-c1c(Oc2ccc(/C=C/C(=O)O)cc2)c2ccc(O)c(F)c2oc1=O"
assay_metric = "hepatocyte CLint"
observed_measurement = "11 µL/min/1e6 cells"

[[record]]
smiles_entry = "Cc1cc(F)ccc1-c1c(Oc2ccc(/C=C/C(=O)O)cc2)c2ccccc2oc1=O"
assay_metric = "hepatocyte CLint"
observed_measurement = "9 µL/min/1e6 cells"


Now for the compound whose hepatocyte CLint we want.
Could you please provide reported hepatocyte CLint for Cc1cc(F)ccc1-c1c(Cc2ccc(/C=C/C(=O)O)cc2)c2ccc(C(F)F)cc2oc1=O ? Thanks!
< 3 µL/min/1e6 cells

====

Here the recorded fraction unbound is given for each entry.
Assay: Free plasma concentration in mouse by LC-UV-MS analysis
Assay type: ADME, cell-free
Form field (numeric): enter value without unit.

// below: answered compounds
[[record]]
smiles_entry = "Cc1cc(F)ccc1-c1c(Oc2ccc(/C=C/C(=O)O)cc2)c2ccc(O)cc2oc1=O"
observed_measurement = 0.028

[[record]]
smiles_entry = "CC/C(=C(\\c1ccccc1)c1ccc(/C=C/C(=O)O)cc1)c1ccccc1"
observed_measurement = 0.064

[[record]]
smiles_entry = "O=C(O)/C=C/c1ccc(Cc2c(-c3ccccc3)c(=O)oc3cc(O)ccc23)cc1"
observed_measurement = 0.012


# return recorded fraction unbound for entry Cc1cc(OC(F)(F)F)ccc1-c1c(Oc2ccc(/C=C/C(=O)O)cc2)c2ccc(O)cc2oc1=O
0.0084
